The values you see were collected from paper PMC6018403.

procedure_text: Multi-component pharmacokinetic study of GQD, GQD-GC and single herb extracts in rats (plasma, LC/MS/MS)
Assay type: in vivo, Sprague-Dawley rats
condition_info: male, Sprague-Dawley, rat, plasma, po, 18.9 g/kg; GQD group: rats, oral GQD 18.9 g/kg (1.5-fold of clinical dosage), plasma; read-out: AUClast
quantity_kind: AUC(0-t)

molecule: COc1ccc2c(c1O)-c1c(O)c(OC)cc3c1[C@H](C2)[N+](C)(C)CC3
result: > 100 ng·h/mL
//
molecule: COc1c(O)c(O[C@@H]2O[C@H](C(=O)O)[C@@H](O)[C@H](O)[C@H]2O)cc2oc(-c3ccccc3)cc(=O)c12 [Compound 38, lateriflorein 7-O-glucuronide]
result: > 700 ng·h/mL

In: Report AUC(0-t), nothing else, for this molecule: `COc1c(CC=C(C)C)c(O)cc2oc(=O)c(-c3ccc(O)cc3O)cc12`
Out: 37.9 ng·h/mL

* * *

procedure_text: Multi-component pharmacokinetic study of GQD, GQD-GC and single herb extracts in rats (plasma, LC/MS/MS)
Format: in vivo, Sprague-Dawley rats
condition_info: male, Sprague-Dawley, rat; GG (Ge-Gen) group: rats, oral extract 9.45 g/kg, plasma; read-out: Tmax
quantity_kind: Tmax (min)

compound: COc1ccc(-c2coc3cc(O[C@@H]4O[C@H](CO)[C@@H](O)[C@H](O)[C@H]4O)ccc3c2=O)cc1
quantity_kind: Tmax
result: 67.2
//
compound: COc1ccc(C2=CC(=O)OC2Cc2ccc(O)cc2)c(OC2OC(CO)C(O)C(O)C2O)c1 [Compound 41, (4S)-puerol B 2″-O-glucopyranoside]
quantity_kind: Tmax
result: 31.2
//
compound: O=c1c(-c2ccc(O)cc2)coc2c([C@@H]3O[C@H](CO)[C@@H](O)[C@H](O)[C@H]3O)c(O)ccc12
quantity_kind: Tmax
result: 35.4
//
compound: O=c1c(-c2ccc(O)cc2)coc2c(C3OC(COC4OCC(O)(CO)C4O)C(O)C(O)C3O)c(O)cc(O)c12 (stereo not drawn)
quantity_kind: Tmax
result: 43.8

1 = O=c1c(-c2ccc(O)cc2)coc2cc(O[C@@H]3O[C@H](CO)[C@@H](O)[C@H](O)[C@H]3O)cc(O)c12
2 = COc1ccc(-c2coc3c(C4OC(COC5OCC(O)(CO)C5O)C(O)C(O)C4O)c(O)ccc3c2=O)cc1 (stereo not drawn)
In: Given the listed items, does 1 or 2 have the lesser reported Tmax? # reply format: chosen label
Out: 2
(2: 23.4 min, 1: 60 min)

* * *

procedure_text: Multi-component pharmacokinetic study of GQD, GQD-GC and single herb extracts in rats (plasma, LC/MS/MS)
Assay type: in vivo, Sprague-Dawley rats
condition_info: male, Sprague-Dawley, rat; GG (Ge-Gen) group: rats, oral extract 9.45 g/kg, plasma; read-out: Cmax
quantity_kind: Cmax (ng/mL)

compound: O=c1c(-c2ccc(O)cc2)coc2cc(O[C@@H]3O[C@H](CO)[C@@H](O)[C@H](O)[C@H]3O)cc(O)c12
result: 3.09

I = COc1ccc(-c2coc3c(C4OC(COC5OCC(O)(CO)C5O)C(O)C(O)C4O)c(O)ccc3c2=O)cc1 (stereo not drawn)
II = COc1ccc(-c2coc3cc(O[C@@H]4O[C@H](CO)[C@@H](O)[C@H](O)[C@H]4O)ccc3c2=O)cc1
III = O=c1c(-c2ccc(O)cc2)coc2c(C3OC(COC4OCC(O)(CO)C4O)C(O)C(O)C3O)c(O)cc(O)c12 (stereo not drawn)
In: Highest Cmax first, then in falling order down to the smallest. Would you mind listing the labels in the order asked for?
Out: II, I, III
(II: 41.2 ng/mL, I: 18.4 ng/mL, III: 11.3 ng/mL)
